As shown below, each of these molecules has a reported composite z-score value.
target: Streptavidin (Streptomyces avidinii) (UniProt P22629); experiment: compounds binding control protein streptavidin – biophysical, small-molecule microarray, 635/667 nm fluorescence, artefact control for SMM compound annotation, primary screen (AID 1147); conditions: higher = more signal;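 note: signal reflects streptavidin binding to arrayed compounds as a control protein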
Sequence (P22629 whole entry, looked up): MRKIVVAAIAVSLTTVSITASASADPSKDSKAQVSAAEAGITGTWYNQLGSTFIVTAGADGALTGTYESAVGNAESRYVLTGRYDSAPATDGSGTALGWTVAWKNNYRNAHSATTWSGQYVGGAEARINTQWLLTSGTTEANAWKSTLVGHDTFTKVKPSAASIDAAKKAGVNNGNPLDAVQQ
Test readout: composite z-score

Molecule	Test readout	Result value
COC(=O)C1(CC(C)C)C=C2C(=C(c3ccccc3)C(=O)C2C)CN1 (stereo unspecified)	composite z-score	0.246
COC(=O)[C@@]1(Cc2ccc(OC)cc2)[C@H]2c3cc(C(=O)N(C)C)n(Cc4ccc(OC(F)(F)F)cc4)c3C[C@H]2CN1C(=O)c1ccccc1	composite z-score	0.539
Cc1ccc(C(C)CC(O)C2C=CC3C(=O)N(c4ccccc4)C(=O)C3N2Nc2ccccc2)o1 (stereo unspecified)	composite z-score	1.19
CC1CC/C=C\[C@H]2OC34C=CCN(C(C)C)C(=O)[C@H]3N(CCO)C(=O)[C@@H]4C2C(=O)O1 (stereo partly specified)	composite z-score	-1.14
CCCCC(CC)C(O)C1C=CC2C(=O)N(C)C(=O)C2N1Nc1ccccc1 (stereo unspecified)	composite z-score	0.454
C=CCC(OC(C)=O)[C@@H]1[C@@H](N(Cc2ccc(-c3cccc(C(F)(F)F)c3)o2)C(=O)Cc2ccc(OC)cc2)c2cc(OCCCO)ccc2N1C(=O)c1ccc(-c2ccccc2)cc1 (stereo partly specified)	composite z-score	1.31
Cc1ccc(S[C@]2(C(=O)NCC(F)(F)F)CC(=O)N(Cc3cc(C(F)(F)F)cc(C(F)(F)F)c3)[C@@H]2c2ccc(CO)cc2)cc1	composite z-score	-0.638
CC(C)(C)OC(=O)CC[C@@]1(C(=O)NCC(O)CO)N=C(c2ccc(OCCCO)cc2)O[C@@H]1c1ccccc1CN=[N+]=[N-] (stereo partly specified)	composite z-score	1.14
COc1cc(C(O)C2C=CC3C(=O)N(C)C(=O)C3N2Nc2ccccc2)cc(OC)c1OC (stereo unspecified)	composite z-score	1.06
N#Cc1ccc(NN2C(C(O)c3ccc(Br)cc3)C=CC3C(=O)N(c4ccccc4)C(=O)C32)cc1 (stereo unspecified)	composite z-score	0.843
CCCCC(=C=CC[C@H](O)c1ccc(OCCO)cc1)CCO	composite z-score	-0.209
O=C1CS(=O)(=O)C(c2cccc([N+](=O)[O-])c2)N1c1ccccc1 (stereo unspecified)	composite z-score	0.392
CC(C)N1CC=CC23O[C@@H]4C=CCCOC(=O)C4[C@H]2C(=O)N(CCCO)[C@@H]3C1=O (stereo partly specified)	composite z-score	-0.912
C=CCC(OC(C)=O)[C@@H]1[C@@H](N(Cc2ccc(-c3ccccc3)cc2)C(=O)c2ccc(-c3ccccc3)cc2)c2cc(OCCCO)ccc2N1C(=O)c1ccc2ccccc2c1 (stereo partly specified)	composite z-score	0.485
C=CC[C@H](OC(=O)Nc1ccc(SC)cc1)c1ccc(O)c2ccccc12	composite z-score	1.61
COc1cccc(C)c1NC(=O)O[C@H]1[C@H](OC(=O)Nc2ccccc2-c2ccccc2)[C@H](OC(=O)Nc2ccccc2-c2ccccc2)[C@@H](OC)O[C@@H]1CO	composite z-score	1.26

* * *

molecular target: Streptavidin (Streptomyces avidinii) (UniProt P22629); assay: compounds binding control protein streptavidin – biophysical, small-molecule microarray, 635/667 nm fluorescence, artefact control for SMM compound annotation, primary screen (AID 1147); conditions: higher = more signal;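 note: signal reflects streptavidin binding to arrayed compounds as a control protein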

Compound	composite z-score
[N-]=[N+]=Nc1ccccc1C[C@]1(C(=O)O)COC(c2ccc(OCCCO)cc2)=N1	-0.213
COc1ccc([Si](C)(C)[C@@H]2[C@@H](CCO)O[C@]3(C(=O)N(Cc4ccccc4)c4ccc(N5CCOC5=O)cc43)[C@H]2C)cc1	0.242
C=C[C@H](C)[C@H](OC(=O)Nc1ccc(SC)cc1)c1ccc(OCCO)cc1	0.374
CS(=O)(=O)CCOC(=O)C1=CC(CCCO)=CC(c2ccc(CN3CCCC3)cc2)N(Cc2sc3ccccc3c2Cl)C=C1C(=O)OCCS(C)(=O)=O (configuration not stated)	2.48
COc1ccc([Si](C)(C)[C@H]2[C@H](CC(=O)N3CCC[C@H]3CO)O[C@@]3(C(=O)N(Cc4ccc(N5CCOC5=O)cc4)c4ccccc43)[C@@H]2C)cc1	-0.0564
COC(=O)[C@]1(CCS(=O)(=O)c2ccccc2)N=C(c2ccc(OCCCO)cc2)O[C@@H]1c1ccccc1N=[N+]=[N-]	1.39
NCCCCCCNC(=O)[C@@H]1C[C@@H]2C(=O)N[C@@H](CCCCN)C(=O)N2[C@@H]1c1ccc(O)cc1	-0.865

* * *

As shown below, each of these compounds has a reported composite z-score value.
test: probe aLAP1 signal on lysate-treated microarray – cell lysate, small-molecule microarray, COS7 lysate, primary screen (AID 1124); conditions: probe aLAP1, fluorescence, higher = more signal;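 note: lysate comes from COS7 cells expressing LAP1 and is applied at 0.3 µg/mL; score merges spot fluorescence near 667 nm with signal-to-noise over triplicate slides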

Compound	composite z-score
COC(=O)C1=CC(CCCO)=CC(c2cccs2)N(Cc2cccc(OC(F)(F)F)c2)C=C1C(=O)OC (configuration not stated)	0.718
CCOC(=O)C[C@H]1[C@H](OC(=O)c2ccc(C(=O)c3ccccc3)cc2)[C@@H](NC(=O)c2ccc3ccccc3n2)c2cc(OCCCO)ccc2N1C(=O)Cc1ccc(OC)cc1	-0.263
COc1ccc(CCNC(=O)[C@@]2(Sc3ccc(C)cc3)CC(=O)N(Cc3ccccc3C(F)(F)F)[C@@H]2c2ccc(CO)cc2I)cc1	-0.0867
C#CCN(Cc1ccccc1Br)[C@H](/C=C/c1ccccc1)[C@@H](O)Cc1ccccc1	0.163
COc1ccc([Si](C)(C)[C@@H]2[C@@H](CC(=O)N3CCC[C@H]3CO)O[C@]3(C(=O)N(Cc4cccc(N5C(=O)COc6ccccc65)c4)c4ccccc43)[C@H]2C)cc1	0.271
CCOC(=O)C[C@H]1[C@H](OC(=O)c2ccc(C(=O)c3ccccc3)cc2)[C@@H](NC(=O)CC(C)C)c2cc(OCCCO)ccc2N1C(=O)c1ccccc1	-0.0609
CC(C)NC(=O)[C@@]1(c2ccc([N+](=O)[O-])cc2)CC(=O)N(C2CCCCC2)[C@@H]1c1ccc(CO)cc1	0.94

* * *

assay: changes in parasitized red cell lysis, either direction – P. falciparum Indochina, OD700, 3 h, PSAC antagonist project, primary screen (AID 1156); conditions: P. falciparum-infected erythrocytes, osmotic lysis, higher = more signal, called active from +8 up or from −8 down
# binarize z-score: threshold 0.4 inclusive, high side True, low side False

Molecule	Group
CCOC(=O)C1=C[C@@H](c2ccccc2)N(S(=O)(=O)c2ccc(C)cc2)[C@H]1c1ccc(OC)cc1	False
COc1cc2c(cc1O)C(C1CC1)N(Cc1cccc(OC(F)(F)F)c1)CC2 (stereo not drawn)	False
O=C(Cc1ccccc1)[C@H]1C2C=CCCC(c3ccccc3)=C2CN1Cc1ccccc1 (stereo partly drawn)	True
Cn1cccc1C(O)C1C=CC2C(=O)N(c3ccccc3)C(=O)C2N1Nc1ccccc1 (stereo not drawn)	False
CN(C)C(=O)[C@]1(Cc2ccccc2CN=[N+]=[N-])N=C(c2ccc(OCCCO)cc2)O[C@@H]1c1ccccc1	True
CCOC(=O)C=Cc1cccc(C)c1O	False
CC(C)N1C(=O)C[C@@](C(=O)O)(c2ccc([N+](=O)[O-])cc2)[C@H]1c1ccc(CO)cc1	True
COC(=O)C(CC#Cc1ccc2c(c1)[C@]1(C(=O)N2)[C@H](c2ccc(O)cc2)N2[C@H](c3ccccc3)[C@H](c3ccccc3)OC(=O)[C@H]2[C@@H]1C(=O)NC[C@H](O)c1ccccc1)C(=O)OC	False

* * *

experiment: JC-1 mitochondrial signal, unstimulated MM1S myeloma – cell-based, JC-1 fluorescence, 24 h, 100 nL compound, profiling panel (AID 1170); conditions: MM1S mitochondrial potential, higher = more signal; note: test concentration not given here
# binarize z-score: threshold -0.5 inclusive, high side True, low side False

Molecule	Group
C=CCNC(=O)[C@@H]1[C@H]2C(=O)O[C@H](c3ccccc3)[C@H](c3ccccc3)N2[C@H](c2ccccc2OCCO)[C@@]12C(=O)Nc1ccc(C#CCC(C(=O)OC)C(=O)OC)cc12	False
COC(=O)c1c(CC[C@@H](CO)NC(=O)N[C@@H](C)Cn2cc(-c3ccccn3)nn2)oc(C(C)=O)c1C(=O)OC	True
CCCCN1CC=CC23O[C@@H]4/C=C\CCCOC(=O)C4[C@H]2C(=O)N(CCO)[C@@H]3C1=O (some centres undefined)	True
CCCC[C@@H](O)C1=C(COC)C[C@H]2C(=O)N(Cc3ccccc3)C(=O)[C@H]2[C@H]1CO	False
CC(C)c1ccc(NN2C(C(O)c3ccc(F)cc3)C=CC3C(=O)N(c4ccccc4)C(=O)C32)cc1 (centres undefined)	False
COCCOC(=O)N1C(=O)[C@@]2(c3cc(C#CCC(C(=O)OC)C(=O)OC)ccc31)[C@H](c1ccc(OCCO)cc1)N1[C@H](c3ccccc3)[C@H](c3ccccc3)OC(=O)[C@H]1[C@@H]2C(=O)N1CCc2cc(OC)c(OC)cc2C1	False
CCOC(=O)C[C@H]1[C@H](OC(=O)c2ccccc2-c2ccccc2)[C@@H](NC(=O)c2ccc3ccccc3c2)c2cc(OCCCO)ccc2N1C(=O)c1ccccc1	True
C#CCN([C@@H](Cc1ccccc1)C(=O)OC)[C@@H](/C=C/C1CC1)[C@H](O)Cc1ccccc1	False
[N-]=[N+]=Nc1ccccc1C[C@@]1(C(=O)N2CCOCC2)N=C(c2ccc(OCCCO)cc2)O[C@@H]1c1ccccc1	True
NC(=O)NCC#Cc1ccc2c(c1)[C@]1(C(=O)N2)[C@H](C(=O)N2CCN(c3ncccn3)CC2)[C@H]2C(=O)O[C@H](c3ccccc3)[C@H](c3ccccc3)N2[C@@H]1c1ccc(O)cc1	True
COc1ccc(C#Cc2ccc3c(c2)[C@]2(C(=O)N3)[C@H](c3ccc(O)cc3)N3[C@H](c4ccccc4)[C@H](c4ccccc4)OC(=O)[C@H]3[C@@H]2C(=O)Nc2nc3ccccc3s2)cc1	True
C=C[C@@H](OC)[C@H](OC(=O)Nc1ccc(OC)cc1)c1ccc(O)c(F)c1	True
CCCC=C(CCC)[C@@H](NC(=O)C(C)(C)C)c1ccc(C(=O)OC)cc1	True
CCOC(=O)C[C@H]1[C@H](OC(=O)c2ccccc2-c2ccccc2)[C@@H](NC(=O)c2ccc3ccccc3n2)c2cc(OCCCO)ccc2N1C(=O)Cc1ccc(OC)cc1	True
